tested_target: TG2 (Homo sapiens, UniProt P21980)
Sequence (P21980 whole entry): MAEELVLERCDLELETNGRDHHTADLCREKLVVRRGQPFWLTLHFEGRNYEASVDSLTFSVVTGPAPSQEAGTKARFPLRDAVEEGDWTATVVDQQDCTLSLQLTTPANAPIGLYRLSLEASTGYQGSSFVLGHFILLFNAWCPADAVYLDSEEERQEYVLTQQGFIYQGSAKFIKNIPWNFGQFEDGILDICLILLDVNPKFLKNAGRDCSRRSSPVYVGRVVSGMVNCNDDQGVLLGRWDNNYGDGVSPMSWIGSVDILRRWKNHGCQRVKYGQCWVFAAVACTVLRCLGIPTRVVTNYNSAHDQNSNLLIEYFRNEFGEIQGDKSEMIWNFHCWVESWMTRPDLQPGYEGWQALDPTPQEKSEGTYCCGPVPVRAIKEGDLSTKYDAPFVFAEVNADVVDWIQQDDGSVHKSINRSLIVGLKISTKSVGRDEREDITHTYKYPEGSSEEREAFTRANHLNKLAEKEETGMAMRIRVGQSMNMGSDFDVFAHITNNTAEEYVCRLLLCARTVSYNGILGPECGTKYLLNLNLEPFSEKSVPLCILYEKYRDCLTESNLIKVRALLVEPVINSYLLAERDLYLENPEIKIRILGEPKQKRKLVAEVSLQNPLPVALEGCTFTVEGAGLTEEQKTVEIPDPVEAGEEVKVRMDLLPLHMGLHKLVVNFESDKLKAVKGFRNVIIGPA
method_summary: glutamate dehydrogenase-coupled deamidation assay, substrate Cbz-Gln-Gly
Type: biochemical
protocol_conditions: irreversible inhibition model, full progress curves
readout_label: kinh/Ki TG2 (M⁻¹ s⁻¹)

O=C(NC[C@@H]1CC(Br)=NO1)[C@@H]1C[C@@H](c2ccc(O)cc2)CN1C(=O)OCc1cnc2ccccc2c1 : 1520

P. O=C(NC[C@@H]1CC(Br)=NO1)[C@@H]1C[C@@H](c2cccc(O)c2)CN1C(=O)OCc1cnc2ccccc2c1
Q. O=C(NC[C@@H]1CC(Br)=NO1)[C@@H]1C[C@@H](c2cccc(Cl)c2)CN1C(=O)OCc1cnc2ccccc2c1
Ask: Thinking about recorded kinh/Ki TG2 values, which is higher, P or Q ? Answer = label.
Result: P
(P: 870 M⁻¹ s⁻¹, Q: 422 M⁻¹ s⁻¹)

A. O=C(NC[C@@H]1CC(Br)=NO1)[C@@H]1C[C@@H](c2ccccc2)CN1C(=O)OCc1cnc2ccccc2c1
B. O=C(NC[C@@H]1CC(Br)=NO1)[C@@H]1C[C@@H](c2c[nH]c3ccc(F)cc23)CN1C(=O)OCc1cnc2ccccc2c1
Ask: Thinking about recorded kinh/Ki TG2 values, which is higher, A or B ? Answer = label.
Result: A
(A: 810 M⁻¹ s⁻¹, B: 307 M⁻¹ s⁻¹)

Cited source: patent US10010541B2
